METHOD NOTES: Solubility test by visual inspection in 18 solvents
Assay type: physicochemical
COND: organic solvent or mixture, thermodynamic from solid, Dichloroethane, room temperature
PROPERTY NAME: solubility

IN: Name the recorded solubility for C=CC(=O)Nc1cc(Nc2ncc(C(=O)OC(C)C)c(-c3cn(C)c4ccccc34)n2)c(OC)cc1N(C)[C@@H]1[C@@H]2CN(C)C[C@@H]21 [free base crystalline form I] .
OUT: 61.8 to 124 mg/mL

###

TARGET OF ASSAY: Ba/F3-FL-EGFR-D770-N771 ins SVD (Homo sapiens, UniProt P00533, DUP768-770, cells depend on it)
Sequence (P00533 with tags, fused parts or gaps DUP768-770): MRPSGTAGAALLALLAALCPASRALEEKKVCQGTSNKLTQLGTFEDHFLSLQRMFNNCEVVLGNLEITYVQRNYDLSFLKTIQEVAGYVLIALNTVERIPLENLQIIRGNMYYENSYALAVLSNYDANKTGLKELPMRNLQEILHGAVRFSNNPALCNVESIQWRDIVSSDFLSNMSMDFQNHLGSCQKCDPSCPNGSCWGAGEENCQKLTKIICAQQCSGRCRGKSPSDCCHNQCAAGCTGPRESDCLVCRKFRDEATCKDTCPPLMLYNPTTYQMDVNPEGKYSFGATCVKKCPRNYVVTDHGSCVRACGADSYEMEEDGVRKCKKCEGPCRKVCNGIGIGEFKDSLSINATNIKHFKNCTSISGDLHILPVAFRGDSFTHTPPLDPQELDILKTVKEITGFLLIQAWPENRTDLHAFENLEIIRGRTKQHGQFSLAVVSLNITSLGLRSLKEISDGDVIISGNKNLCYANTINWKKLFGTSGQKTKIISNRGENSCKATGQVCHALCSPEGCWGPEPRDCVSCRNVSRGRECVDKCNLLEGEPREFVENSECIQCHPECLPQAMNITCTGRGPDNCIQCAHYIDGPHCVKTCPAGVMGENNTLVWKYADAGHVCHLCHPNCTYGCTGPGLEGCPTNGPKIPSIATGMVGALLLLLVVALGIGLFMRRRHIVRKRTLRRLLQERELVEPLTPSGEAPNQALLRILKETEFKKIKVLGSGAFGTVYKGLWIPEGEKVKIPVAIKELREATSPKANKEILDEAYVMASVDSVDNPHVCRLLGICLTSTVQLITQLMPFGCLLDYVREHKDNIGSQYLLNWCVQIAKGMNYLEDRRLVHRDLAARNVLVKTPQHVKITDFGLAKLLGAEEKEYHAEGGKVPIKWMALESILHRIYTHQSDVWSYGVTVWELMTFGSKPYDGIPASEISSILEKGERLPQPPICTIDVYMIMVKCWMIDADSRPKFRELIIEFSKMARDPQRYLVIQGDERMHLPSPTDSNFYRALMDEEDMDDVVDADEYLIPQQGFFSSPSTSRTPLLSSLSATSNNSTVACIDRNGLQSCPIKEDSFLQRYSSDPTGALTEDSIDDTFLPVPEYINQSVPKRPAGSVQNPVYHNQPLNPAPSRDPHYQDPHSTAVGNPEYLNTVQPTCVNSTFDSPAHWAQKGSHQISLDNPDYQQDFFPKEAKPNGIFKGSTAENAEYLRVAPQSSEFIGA
METHOD NOTES: Cell proliferation inhibition (CellTiter-Glo), EGFR exon 20 insertion engineered cells
Type: cell-based
COND: 72 h, read-out: IC50, Ba/F3-FL-EGFR D770-N771ins SVD
Measured GI50 by item

// worked examples, GI50 included
{"MOLECULE": "[2H]C([2H])([2H])N(c1cc(OC)c(Nc2ncc(-c3nnc(C)o3)c(-c3cn(C)c4ccccc34)n2)cc1NC(=O)C=C)[C@@H]1[C@@H]2CN(C)C[C@@H]21", "GI50": "≤ 30 nM"}
{"MOLECULE": "C=CC(=O)Nc1cc(Nc2ncc(-c3nnc(C)o3)c(-c3cn(C)c4ccccc34)n2)c(OC)cc1N(C)[C@@H]1[C@@H]2CN(C)C[C@@H]21", "GI50": "≤ 30 nM"}

IN: // query GI50 value for entry C=CC(=O)Nc1cc(Nc2ncc(C(=O)OC(C)C)c(-c3cn(C)c4ccccc34)n2)c(OC)cc1N(C)CCN(C)C [TAK-788, reference compound]
OUT: ≤ 30 nM

###

METHOD NOTES: Solubility test by visual inspection in 18 solvents
Format: physicochemical
COND: organic solvent or mixture, thermodynamic from solid, Ethyl acetate, room temperature
PROPERTY NAME: solubility

IN: Record request: solubility value, item C=CC(=O)Nc1cc(Nc2ncc(C(=O)OC(C)C)c(-c3cn(C)c4ccccc34)n2)c(OC)cc1N(C)[C@@H]1[C@@H]2CN(C)C[C@@H]21 [free base crystalline form I]
OUT: < 290 µg/mL

###

METHOD NOTES: Solubility test by visual inspection in 18 solvents
Format: physicochemical
COND: organic solvent or mixture, thermodynamic from solid, Tert-butyl methyl ether, room temperature
PROPERTY NAME: solubility

IN: What does the data say about its solubility? Entry: C=CC(=O)Nc1cc(Nc2ncc(C(=O)OC(C)C)c(-c3cn(C)c4ccccc34)n2)c(OC)cc1N(C)[C@@H]1[C@@H]2CN(C)C[C@@H]21 [free base crystalline form I]
OUT: < 330 µg/mL

###

TARGET OF ASSAY: Ba/F3-FL-EGFR-A763-Y764 ins FQEA (Homo sapiens, UniProt P00533, INS763FQEA, cells depend on it)
Sequence (P00533 with tags, fused parts or gaps INS763FQEA): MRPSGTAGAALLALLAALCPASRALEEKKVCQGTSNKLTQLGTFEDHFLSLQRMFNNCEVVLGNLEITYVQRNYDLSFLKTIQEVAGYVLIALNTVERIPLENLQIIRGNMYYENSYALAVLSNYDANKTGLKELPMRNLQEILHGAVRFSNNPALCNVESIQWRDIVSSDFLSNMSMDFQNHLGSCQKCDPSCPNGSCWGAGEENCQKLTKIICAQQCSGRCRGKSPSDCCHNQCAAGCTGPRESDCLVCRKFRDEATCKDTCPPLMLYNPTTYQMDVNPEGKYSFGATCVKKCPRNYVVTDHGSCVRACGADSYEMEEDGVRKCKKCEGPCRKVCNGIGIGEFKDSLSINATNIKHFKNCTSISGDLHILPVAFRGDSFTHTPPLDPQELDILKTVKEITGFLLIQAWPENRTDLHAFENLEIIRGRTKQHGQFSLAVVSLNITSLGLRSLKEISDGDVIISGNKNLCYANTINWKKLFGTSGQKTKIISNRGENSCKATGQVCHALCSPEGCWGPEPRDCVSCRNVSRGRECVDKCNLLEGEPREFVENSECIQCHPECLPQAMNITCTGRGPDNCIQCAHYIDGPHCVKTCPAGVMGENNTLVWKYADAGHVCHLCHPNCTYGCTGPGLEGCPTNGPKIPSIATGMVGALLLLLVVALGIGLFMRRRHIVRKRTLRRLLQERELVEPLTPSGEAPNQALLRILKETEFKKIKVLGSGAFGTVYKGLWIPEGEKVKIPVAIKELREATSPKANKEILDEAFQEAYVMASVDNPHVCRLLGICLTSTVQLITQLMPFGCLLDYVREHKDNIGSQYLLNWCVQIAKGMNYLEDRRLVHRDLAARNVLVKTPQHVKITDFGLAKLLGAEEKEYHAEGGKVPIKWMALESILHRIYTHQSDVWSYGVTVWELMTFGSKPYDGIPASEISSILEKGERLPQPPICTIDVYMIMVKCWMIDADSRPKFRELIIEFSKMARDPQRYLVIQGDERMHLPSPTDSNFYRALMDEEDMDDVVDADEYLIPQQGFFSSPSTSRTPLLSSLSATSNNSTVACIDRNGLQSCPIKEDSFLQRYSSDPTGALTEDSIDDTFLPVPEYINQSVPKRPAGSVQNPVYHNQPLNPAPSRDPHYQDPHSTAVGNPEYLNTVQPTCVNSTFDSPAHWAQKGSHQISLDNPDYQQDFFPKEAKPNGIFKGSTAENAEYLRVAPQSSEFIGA
METHOD NOTES: Cell proliferation inhibition (CellTiter-Glo), EGFR exon 20 insertion engineered cells
Assay type: cell-based
COND: 72 h, read-out: IC50, Ba/F3-FL-EGFR A763-Y764ins FQEA
PROPERTY NAME: GI50

{"MOLECULE": "[2H]C([2H])([2H])n1cc(-c2nc(Nc3cc(NC(=O)C=C)c(N(C)[C@@H]4[C@@H]5CN(C)C[C@@H]54)cc3OC)ncc2C(=O)OC(C)C)c2ccccc21", "RESULT VALUE": "≤ 0.03 µM"}
{"MOLECULE": "[2H]C([2H])([2H])N(c1cc(OC)c(Nc2ncc(C(=O)OC(C)C)c(-c3cn(C)c4ccccc34)n2)cc1NC(=O)C=C)[C@@H]1[C@@H]2CN(C)C[C@@H]21", "RESULT VALUE": "≤ 0.03 µM"}

IN: What value of GI50 has been reported for the following molecule? C=CC(=O)Nc1cc(Nc2nccc(Nc3cc(Cl)c(F)cc3C(C)(C)O)n2)c(OC)cc1N1CC[C@@H](N(C)C)C1 [DZD9008, reference compound]
OUT: ≤ 0.03 µM

###

METHOD NOTES: Solubility test by visual inspection in 18 solvents
Type: physicochemical
COND: organic solvent or mixture, thermodynamic from solid, n-Heptane, room temperature
PROPERTY NAME: solubility

IN: Give its solubility value. Item: C=CC(=O)Nc1cc(Nc2ncc(C(=O)OC(C)C)c(-c3cn(C)c4ccccc34)n2)c(OC)cc1N(C)[C@@H]1[C@@H]2CN(C)C[C@@H]21 [free base crystalline form I]
OUT: < 300 µg/mL

###

METHOD NOTES: Solubility test by visual inspection in 18 solvents
Format: physicochemical
COND: organic solvent or mixture, thermodynamic from solid, Ethanol, room temperature
PROPERTY NAME: solubility

IN: What does the data say about its solubility? Entry: C=CC(=O)Nc1cc(Nc2ncc(C(=O)OC(C)C)c(-c3cn(C)c4ccccc34)n2)c(OC)cc1N(C)[C@@H]1[C@@H]2CN(C)C[C@@H]21 [free base crystalline form I]
OUT: < 300 µg/mL

###

TARGET OF ASSAY: Ba/F3-FL-EGFR-D770-N771 ins SVD (Homo sapiens, UniProt P00533, DUP768-770, cells depend on it)
METHOD NOTES: Cell proliferation inhibition (CellTiter-Glo), EGFR exon 20 insertion engineered cells
Format: cell-based
COND: 72 h, read-out: IC50, Ba/F3-FL-EGFR D770-N771ins SVD
Protocol: The selected engineering cells Ba/F3-FL-EGFR-V769-D770 ins ASV, Ba/F3-FL-EGFR-D770-N771 ins SVD, Ba/F3-FL-EGFR-H773-V774 ins NPH, Ba/F3-FL-EGFR-A763-Y764 ins FQEA, Ba/F3-HER2-A775-G776 ins YVMA were provided by Hefei PreceDo Biomedical Technology Co., LTD and were validated prior to use in this study. A 20× stock of the compound to be tested was prepared for use, with 9 concentrations in 3-fold gradient dilution, diluted from 1 μM. […]
PROPERTY NAME: GI50

IN: # input compound: C=CC(=O)Nc1cc(Nc2ncc(C(=O)OC(C)C)c(-c3cn(C)c4ccccc34)n2)c(OC)cc1N(C)[C@@H]1[C@@H]2CN(C)C[C@@H]21 ; wanted: its GI50
OUT: ≤ 30 nM

IN: For the compound [2H]C([2H])([2H])n1cc(-c2nc(Nc3cc(NC(=O)C=C)c(N(C)[C@@H]4[C@@H]5CN(C)C[C@@H]54)cc3OC)ncc2C(=O)OC(C)C)c2ccccc21 , what GI50 is on record?
OUT: ≤ 30 nM

IN: Form field: reported GI50 of [2H]C([2H])([2H])N1C[C@@H]2[C@H](C1)[C@@H]2N(C)c1cc(OC)c(Nc2ncc(-c3nnc(C)o3)c(-c3cn(C)c4ccccc34)n2)cc1NC(=O)C=C
OUT: ≤ 30 nM

IN: Using the record for C=CC(=O)Nc1cc(Nc2nccc(Nc3cc(Cl)c(F)cc3C(C)(C)O)n2)c(OC)cc1N1CC[C@@H](N(C)C)C1 [DZD9008, reference compound] , report its GI50.
OUT: 30 to 100 nM

IN: If you can, please state the reported GI50 value of [2H]C([2H])([2H])N(c1cc(OC)c(Nc2ncc(C(=O)OC(C)C)c(-c3cn(C)c4ccccc34)n2)cc1NC(=O)C=C)[C@@H]1[C@@H]2CN(C)C[C@@H]21 .
OUT: ≤ 30 nM

###

METHOD NOTES: Solubility test by visual inspection in 18 solvents
Format: physicochemical
COND: organic solvent or mixture, thermodynamic from solid, Dichloromethane, room temperature
PROPERTY NAME: solubility

IN: Find the recorded solubility belonging to C=CC(=O)Nc1cc(Nc2ncc(C(=O)OC(C)C)c(-c3cn(C)c4ccccc34)n2)c(OC)cc1N(C)[C@@H]1[C@@H]2CN(C)C[C@@H]21 [free base crystalline form I] and report it.
OUT: > 107 mg/mL

###

METHOD NOTES: Solubility test by visual inspection in 18 solvents
Assay type: physicochemical
COND: organic solvent or mixture, thermodynamic from solid, Cyclohexane, room temperature
PROPERTY NAME: solubility

IN: Param item = C=CC(=O)Nc1cc(Nc2ncc(C(=O)OC(C)C)c(-c3cn(C)c4ccccc34)n2)c(OC)cc1N(C)[C@@H]1[C@@H]2CN(C)C[C@@H]21 [free base crystalline form I] ; retrieve measured solubility.
OUT: < 330 µg/mL

###

METHOD NOTES: Solubility test by visual inspection in 18 solvents
Format: physicochemical
COND: organic solvent or mixture, thermodynamic from solid, N-Methyl pyrrolidone, room temperature
PROPERTY NAME: solubility

IN: // lookup solubility for C=CC(=O)Nc1cc(Nc2ncc(C(=O)OC(C)C)c(-c3cn(C)c4ccccc34)n2)c(OC)cc1N(C)[C@@H]1[C@@H]2CN(C)C[C@@H]21 [free base crystalline form I]
OUT: 18.2 to 27.4 mg/mL

###

METHOD NOTES: Solubility test by visual inspection in 18 solvents
Assay type: physicochemical
COND: organic solvent or mixture, thermodynamic from solid, Methanol, room temperature
PROPERTY NAME: solubility

IN: Returns the measured solubility for the input compound. Input: C=CC(=O)Nc1cc(Nc2ncc(C(=O)OC(C)C)c(-c3cn(C)c4ccccc34)n2)c(OC)cc1N(C)[C@@H]1[C@@H]2CN(C)C[C@@H]21 [free base crystalline form I]
OUT: < 400 µg/mL
